Measured values drawn from ChEMBL document CHEMBL1144235 for this set.

# test-target: UniProtKB P05067
# test-summary: Inhibition of amyloid beta42 fibril formation by thioflavin T formation
pIC50: −log10 of the molar value.
measured-property: pIC50

mol_smiles=CN(C)c1ccc(/C=C/c2cc3ccc(Br)cc3o2)cc1 quantitative_result=5.87

A. CN(C)c1ccc(/C=C/c2cc3ccccc3o2)cc1
B. Cc1ccc2oc(/C=C/c3ccc(N(C)C)cc3)cc2c1
C. COc1ccc2oc(/C=C/c3ccc(N(C)C)cc3)cc2c1
Put these in order: smallest pIC50 first, largest last. // ordering of labels required in reply A, C, B

* * *

# test-target: Amyloid-beta precursor protein (Homo sapiens)
# test-summary: Inhibition of amyloid beta42 fibril formation by thioflavin T formation
measured-property: IC50 (µM)

Recorded IC50, per entry:
mol_smiles=Cc1ccc2cc(/C=C/c3ccc(N(C)C)cc3)oc2c1 test_target="Amyloid-beta precursor protein (Homo sapiens)" quantitative_result=3.44
mol_smiles=CN(C)c1ccc(/C=C/c2cc3cc(Cl)ccc3o2)cc1 test_target="Amyloid-beta precursor protein (Homo sapiens)" quantitative_result=0.2
mol_smiles=CNc1ccc(/C=C/c2cc3cc(OC)ccc3o2)cc1 test_target="Amyloid-beta precursor protein (Homo sapiens)" quantitative_result=0.08
mol_smiles=CN(C)c1ccc(/C=C/c2cc3cc(F)ccc3o2)cc1 test_target="Amyloid-beta precursor protein (Homo sapiens)" quantitative_result=1.98
mol_smiles=COc1ccc2cc(/C=C/c3ccc(N(C)C)c(OC)c3)oc2c1 test_target="Amyloid-beta precursor protein (Homo sapiens)" quantitative_result=0.53
mol_smiles=CN(C)c1ccc(/C=C/c2cc3ccc(Cl)cc3o2)cc1 test_target="Amyloid-beta precursor protein (Homo sapiens)" quantitative_result=3.21
mol_smiles=COc1ccc2oc(/C=C/c3ccc(N)cc3)cc2c1 test_target="Amyloid-beta precursor protein (Homo sapiens)" quantitative_result=0.82
mol_smiles=CN(C)c1ccc(/C=C/c2cc3ccc(O)cc3o2)cc1 test_target="Amyloid-beta precursor protein (Homo sapiens)" quantitative_result=3.62
mol_smiles=COc1ccc2cc(/C=C/c3ccc(N)cc3)oc2c1 test_target="Amyloid-beta precursor protein (Homo sapiens)" quantitative_result=5.44
mol_smiles=CNc1ccc(/C=C/c2cc3cc(O)ccc3o2)cc1 test_target="Amyloid-beta precursor protein (Homo sapiens)" quantitative_result=2.16

1. COc1ccc2cc(/C=C/c3ccc(N(C)C)cc3)oc2c1
2. CNc1ccc(/C=C/c2cc3ccc(OC)cc3o2)cc1
Which has the higher IC50, 1 or 2 ? Respond with the label that goes with your answer. 2

* * *

# test-target: Amyloid-beta precursor protein (Homo sapiens, UniProt P05067)
# Sequence (P05067 whole entry): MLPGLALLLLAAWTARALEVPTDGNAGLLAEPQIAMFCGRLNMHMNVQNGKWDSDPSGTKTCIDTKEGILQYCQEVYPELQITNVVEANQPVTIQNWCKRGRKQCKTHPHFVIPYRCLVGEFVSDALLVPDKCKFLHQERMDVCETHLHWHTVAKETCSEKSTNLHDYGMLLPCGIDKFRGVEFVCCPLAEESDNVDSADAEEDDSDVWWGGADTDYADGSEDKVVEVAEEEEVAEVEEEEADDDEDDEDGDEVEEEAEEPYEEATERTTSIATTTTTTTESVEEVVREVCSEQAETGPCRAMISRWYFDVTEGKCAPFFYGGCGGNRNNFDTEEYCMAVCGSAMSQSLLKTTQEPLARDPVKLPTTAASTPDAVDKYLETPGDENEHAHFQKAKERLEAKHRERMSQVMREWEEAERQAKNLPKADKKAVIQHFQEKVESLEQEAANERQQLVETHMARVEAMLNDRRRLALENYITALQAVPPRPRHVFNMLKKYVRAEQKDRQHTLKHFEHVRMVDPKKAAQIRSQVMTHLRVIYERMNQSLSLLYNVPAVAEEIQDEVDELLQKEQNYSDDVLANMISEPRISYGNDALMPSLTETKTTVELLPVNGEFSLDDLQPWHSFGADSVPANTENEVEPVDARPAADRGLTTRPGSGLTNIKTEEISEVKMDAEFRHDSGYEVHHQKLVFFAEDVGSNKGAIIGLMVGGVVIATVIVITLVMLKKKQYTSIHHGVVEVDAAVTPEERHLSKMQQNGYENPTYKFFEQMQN
# test-summary: Inhibition of amyloid beta42 fibril formation by thioflavin T formation
measured-property: IC50 (nM)

Recorded IC50, per entry:
mol_smiles=CN(C)c1ccc(/C=C/c2cc3cc(Br)ccc3o2)cc1 quantitative_result=470
mol_smiles=CN(C)c1ccc(/C=C/c2cc3ccc(F)cc3o2)cc1 quantitative_result=2190
mol_smiles=CN(C)c1ccc(/C=C/c2cc3cc(I)ccc3o2)cc1 quantitative_result=170
mol_smiles=CN(C)c1ccc(/C=C/c2cc3cc(O)ccc3o2)cc1 quantitative_result=160

A. COc1ccc2oc(/C=C/c3ccc(N(C)C)c(OC)c3)cc2c1
B. CN(C)c1ccc(/C=C/c2cc3ccc(I)cc3o2)cc1
Could you check which of A and B has a smaller value for IC50? Respond with the label that goes with your answer. A
